# TESTED TARGET: DNA repair protein RAD52 homolog (Homo sapiens, UniProt P43351)
# Sequence (P43351 whole entry): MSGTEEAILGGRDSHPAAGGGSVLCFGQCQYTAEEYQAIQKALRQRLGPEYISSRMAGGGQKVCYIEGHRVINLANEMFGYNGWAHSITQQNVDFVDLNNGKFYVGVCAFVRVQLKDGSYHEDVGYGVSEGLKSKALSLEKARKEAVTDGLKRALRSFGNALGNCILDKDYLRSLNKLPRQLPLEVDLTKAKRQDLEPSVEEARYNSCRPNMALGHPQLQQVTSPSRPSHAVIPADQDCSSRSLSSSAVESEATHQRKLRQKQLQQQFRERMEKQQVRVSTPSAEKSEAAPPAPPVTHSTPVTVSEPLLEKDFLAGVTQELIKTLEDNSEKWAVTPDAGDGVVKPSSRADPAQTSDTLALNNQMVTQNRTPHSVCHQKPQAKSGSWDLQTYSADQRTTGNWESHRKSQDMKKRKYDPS
# Format: functional, biochemical
Active and inactive are the calls of the source.
READOUT LABEL: AC50

Answered examples (5):
>>> observed_measurement("CCN(CC)CCNc1ccc(C)c2sc3ccc(O)cc3c(=O)c12")
"0.655 µM (active)"
>>> observed_measurement("CCOc1ccc2[nH]c3c(c2c1)CNCC3")
"26.8 µM (active)"
>>> observed_measurement("CN(C)CCCN(C(=O)c1ccc(C(=O)c2ccccc2)cc1)c1nc2cc3c(cc2s1)OCO3")
"7.81 µM (active)"
>>> observed_measurement("CC(=O)O[C@H]1C[C@@H]2CC[C@@H]3[C@H](CC[C@@]4(C)[C@H]3C[C@H]([N+]3(C)CCCCC3)[C@@H]4OC(C)=O)[C@@]2(C)C[C@@H]1[N+]1(C)CCCCC1 [PANCURONIUM BROMIDE]")
"8.3 µM (active)"
>>> observed_measurement("C#CCOCCOCCOCCNc1nc(N2CCN(C(=O)Cn3cc(CCCN=C(N)N)nn3)CC2)nc(N2CCN(C(=O)[C@H](CCCCN)n3cc(CCCC)nn3)CC2)n1")
"34 µM (active)"

Your task in this section: give AC50 for each listed record.
1. COc1ccc2c(c1)CC1c3c(cc4c(c3-2)OCO4)CC[N+]1(C)[O-] (configuration not stated)
2. CCN1CCCC1CNC(=O)c1ccc2c(c1)NC(=O)/C(=C\c1ccccc1F)S2 (configuration not stated)

Result string:
3.38 µM (active)
6.33 µM (active)

###

# TESTED TARGET: Streptokinase A (Streptococcus pyogenes serotype M1, UniProt P10520)
# Sequence (P10520 whole entry): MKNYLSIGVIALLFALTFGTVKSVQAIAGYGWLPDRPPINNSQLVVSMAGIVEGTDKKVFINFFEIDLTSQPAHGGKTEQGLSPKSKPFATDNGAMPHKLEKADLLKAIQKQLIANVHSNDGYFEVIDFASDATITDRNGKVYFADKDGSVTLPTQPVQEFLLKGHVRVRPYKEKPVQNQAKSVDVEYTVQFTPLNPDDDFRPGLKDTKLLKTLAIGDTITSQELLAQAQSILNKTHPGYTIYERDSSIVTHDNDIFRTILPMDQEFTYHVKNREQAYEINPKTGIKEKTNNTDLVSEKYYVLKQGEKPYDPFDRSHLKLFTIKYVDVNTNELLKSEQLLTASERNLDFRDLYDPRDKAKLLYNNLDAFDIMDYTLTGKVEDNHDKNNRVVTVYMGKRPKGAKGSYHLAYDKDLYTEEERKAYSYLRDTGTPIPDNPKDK
# TEST METHOD NOTES: viability-normalized secreted streptokinase activity reduction – plasminogen activation absorbance, OD405, dose response (AID 1914);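 note: secreted streptokinase activity via plasminogen activation per viability signal from cell pellet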
# Assay type: functional, Streptococcus pyogenes M1 GAS
Calls of active or inactive are those of the source.
Field: EC50. Provide a value for each of the compounds that follow.

>>> observed_measurement("Oc1nc(CN2CC=C(c3ccccc3)CC2)nc2scc(-c3ccccc3)c12")
"> 150 µM (not active)"
>>> observed_measurement("COC(=O)c1ccccc1NC(=O)c1nc(S(=O)(=O)Cc2ccccc2)ncc1Cl")
"3.08 µM (active)"
>>> observed_measurement("O=C(Nc1ccc(Cl)c(Cl)c1)N1CC=C(c2ccccc2)CC1")
"11.9 µM (active)"
>>> observed_measurement("CN1C(=O)/C(=C/c2cccn2-c2ccc3ccccc3c2)C(=O)NC1=S")
"4.97 µM (active)"
>>> observed_measurement("O=C(/C=C/c1ccco1)NC(=S)Nc1ccc(N2CCOCC2)c(Cl)c1")
"> 150 µM (not active)"

Looking up Cc1cc(O)c(C(C)C)cc1C1(c2cc(C(C)C)c(O)cc2C)OC(=O)c2ccccc21 , I found its EC50 recorded as > 150 µM (not active)
